Recorded values, source PubChem BioAssay (NCI).

test system: T-47D breast; assay: NCI tumour cell line growth inhibition, 384-well format; in the data active = GI50 below about 0.43 µM; inactive = the rest
Please answer using one outcome listed in 1.0 = active, 0.0 = inactive

A selection of reference data follows.
[[record]]
molecule = "Cc1c(N)nc([C@H](CC(N)=O)NC[C@H](N)C(N)=O)nc1C(=O)N[C@H](C(=O)N[C@H](C)[C@@H](O)[C@H](C)C(=O)N[C@H](C(=O)NCCc1nc(-c2nc(C(=O)NCCC[S+](C)C)cs2)cs1)[C@@H](C)O)C(OC1OC(CO)C(O)C(O)C1OC1OC(CO)C(O)C(OC(N)=O)C1O)c1cnc[nH]1 (stereo not given in full)"
target_desc = "T-47D breast"
class_name = 0.0

[[record]]
molecule = "CCC[C@H](Nc1nc(-c2ccc(NC(=O)NCC)c(OC)c2)ncc1C)c1cccnc1"
target_desc = "T-47D breast"
class_name = 1.0

[[record]]
molecule = "Cc1c(N(C(=O)c2cc(-c3cc(Cl)ccc3C(=O)N3Cc4ccccc4C[C@H]3CN3CCOCC3)n(C)c2C)c2ccc(O)cc2)cc(C#N)n1C"
target_desc = "T-47D breast"
class_name = 0.0

[[record]]
molecule = "CCOC(=O)c1ccc2[nH]c(Cc3[nH]c4ccc(C(=O)OCC)cc4c3C)c(C)c2c1"
target_desc = "T-47D breast"
class_name = 0.0


Kindly consider the entry below.
Input line: Hello, I am checking results. What call was entered for Cc1cc(Nc2ncc(Cl)c(Nc3ccccc3S(=O)(=O)C(C)C)n2)c(OC(C)C)cc1C1CCNCC1 ?
Output line: 0.0

---

tested on: HOP-62 NSCLC; experiment: NCI tumour cell line growth inhibition, 384-well format
Metric Name: TGI (µM)
The figure you give is taken to be in µM; do not add the unit.

Below, each entry is followed by its recorded TGI result.
[[record]]
compound = "Cc1c(N(C(=O)c2cc(-c3cc(Cl)ccc3C(=O)N3Cc4ccccc4C[C@H]3CN3CCOCC3)n(C)c2C)c2ccc(O)cc2)cc(C#N)n1C"
metric_name = "TGI"
unit_abbreviation = "µM"
measured_result = 29.3

[[record]]
compound = "Cc1cc(Nc2ncc(Cl)c(Nc3ccccc3S(=O)(=O)C(C)C)n2)c(OC(C)C)cc1C1CCNCC1"
metric_name = "TGI"
unit_abbreviation = "µM"
measured_result = 3.1

[[record]]
compound = "Nc1nc(F)nc2c1ncn2C1OC(COP(=O)(O)O)C(O)C1O (centres undefined)"
metric_name = "TGI"
unit_abbreviation = "µM"
measured_result = 21.2


// below: TGI requested for another compound
Input line: Check the records and state TGI for CCC[C@H](Nc1nc(-c2ccc(NC(=O)NCC)c(OC)c2)ncc1C)c1cccnc1
Output line: 1.18

---

tested on: HL-60(TB) leukemia; assay: NCI tumour cell line growth inhibition, 384-well format; in the data active = GI50 below about 0.43 µM; inactive = the rest
Please answer using one outcome listed in TRUE for active, FALSE for inactive

[[record]]
molecule = "Cc1c(N(C(=O)c2cc(-c3cc(Cl)ccc3C(=O)N3Cc4ccccc4C[C@H]3CN3CCOCC3)n(C)c2C)c2ccc(O)cc2)cc(C#N)n1C"
class_name = "TRUE"


Kindly consider the entry below.
Input line: Hello, I am checking results. What call was entered for CO[C@H]1C[C@@H]2CC[C@@H](C)[C@@](O)(O2)C(=O)C(=O)N2CCCC[C@H]2C(=O)O[C@H]([C@H](C)C[C@@H]2CC[C@@H](OC(=O)C(C)(CO)CO)[C@H](OC)C2)CC(=O)[C@H](C)/C=C(\C)[C@@H](O)[C@@H](OC)C(=O)[C@H](C)C[C@H](C)/C=C/C=C/C=C/1C ?
Output line: FALSE
